# experiment: Cytotoxicity against human PC3 cells after 144 hrs by SRB assay
# Assay type: cell-based
# assaySetup: pc-3, 144 h
quantityKind: Activity

N#Cc1ccc(NC(=O)[C@](O)(Cc2cc(F)cc(F)c2)CS(=O)(=O)c2ccc(F)cc2)cc1C(F)(F)F: Non-toxic
N#Cc1ccc(C[C@](O)(CS(=O)(=O)c2ccc(F)cc2)C(=O)Nc2ccc(C#N)c(C(F)(F)F)c2)cc1: Non-toxic
C[C@](O)(CS(=O)(=O)c1ccc(F)cc1)C(=O)Nc1ccc(C#N)c(C(F)(F)F)c1 [(R)-BICALUTAMIDE]: Non-toxic
N#Cc1ccc(NC(=O)[C@](O)(Cc2ccc3ccccc3c2)CS(=O)(=O)c2ccc(F)cc2)cc1C(F)(F)F: Toxic

###

# Test system: LNCaP
# experiment: Induction of apoptosis in human LNCAP cells expressing mutant androgen receptor at 20 uM after 144 hrs by TUNEL assay
# Assay type: cell-based
quantityKind: Activity (%)
Numeric answer only, unit % assumed.

Query block: Name the recorded Activity of the compound listed here: `N#Cc1ccc(NC(=O)[C@](O)(Cc2ccc(C(F)(F)F)cc2)CS(=O)(=O)c2ccc(F)cc2)cc1C(F)(F)F`
Result block: 91.9

Query block: State its Activity: `N#Cc1ccc(NC(=O)[C@](O)(Cc2cc(F)cc(F)c2)CS(=O)(=O)c2ccc(F)cc2)cc1C(F)(F)F`
Result block: 91.9

Query block: Give reported Activity value for `N#Cc1ccc(NC(=O)[C@](O)(Cc2ccc3ccccc3c2)CS(=O)(=O)c2ccc(F)cc2)cc1C(F)(F)F`
Result block: 91.9
